# Experimental protocol: Optical properties (absorption, emission, extinction coefficient) of BDP635 and derivative SBDPiRs
# Format: physicochemical
Quantity: λflu (nm)
I only need the number, in nm, no unit after it.

Problem: Fill in the blank: the reported λflu of F[B-]1(F)n2c(cc3sc(-c4cccs4)cc32)C(C(F)(F)F)=C2C=c3sc(-c4cccs4)cc3=[N+]21 [SBDPiR735] is ____.
Solution: 763

Problem: What λflu value was documented for this molecule, COc1ccc(Oc2cc3c(s2)=CC2=C(C(F)(F)F)c4cc5sc(Oc6ccc(OC)cc6)cc5n4[B-](F)(F)[N+]=32)cc1 [SBDPiR650_OMe] ?
Solution: 660

Problem: Query: λflu; subject: F[B-]1(F)n2c(cc3sc(-c4ccccc4)cc32)C(C(F)(F)F)=C2C=c3sc(-c4ccccc4)cc3=[N+]21 [SBDPiR690]
Solution: 700

Problem: Could you tell me which λflu is on file for F[B-]1(F)n2c(cc3sc(C=Cc4ccccc4)cc32)C(C(F)(F)F)=C2C=c3sc(C=Cc4ccccc4)cc3=[N+]21 [SBDPiR755] ?
Solution: 785

Problem: For the molecule shown here, COc1cc(-c2cc3c(s2)=CC2=C(C(F)(F)F)c4cc5sc(-c6cc(OC)c(OC)c(OC)c6)cc5n4[B-](F)(F)[N+]=32)cc(OC)c1OC [SBDPiR730] , give the reported λflu.
Solution: 761

Problem: For the molecule shown here, COc1ccc(-c2cc3c(s2)=CC2=C(C(F)(F)F)c4cc5sc(-c6ccc(OC)cc6)cc5n4[B-](F)(F)[N+]=32)cc1 [SBDPiR731] , give the reported λflu.
Solution: 755
